Values compiled from patent US6541505B1.

Counter-ions that a name gives are not always drawn.
Assignment: determine reported melting point for the given molecules.

Solved entries:
MOLECULE | melting point
N=C(N)c1c[nH]c2ccc(CCNC(=O)c3ccc(-c4ncns4)cc3)cc12 | 222 to 224 °C
N=C(N)c1c[nH]c2ccc(CCNC(=O)c3ccc(-n4cccn4)nc3)cc12 | 235 to 236 °C
CN(C)CCCOc1ccccc1-c1ccc(C(=O)NCCc2ccc3[nH]cc(C(=N)N)c3c2)cc1 | 76 to 78 °C
N=C(N)c1c[nH]c2ccc(CCNC(=O)c3ccc(-n4ccnc4)cc3)cc12 | 191 to 194 °C
COc1ccc(-c2ccc(C(=O)NCCc3ccc4[nH]cc(C(=N)N)c4c3)cc2)cn1 | 164 to 167 °C

Could I get melting point for every one of these entries?
1. N=C(N)c1c[nH]c2ccc(CCNC(=O)c3ccc(-c4ccnc(NCCCCCCN5CCOCC5)n4)cc3)cc12
2. N=C(N)c1c[nH]c2ccc(CCNC(=O)c3ccc(-c4ccnc(NCCCCN5CCCCC5)n4)cc3)cc12
3. CN(C)CCCCNc1nccc(-c2ccc(C(=O)NCCc3ccc4[nH]cc(C(=N)N)c4c3)cc2)n1 (as salt: salt)

1. 129 to 130 °C
2. 94 to 96 °C
3. 156 to 159 °C

---

Where a name gives a salt, the structure may show the parent alone.
MEASURED_ENDPOINT: melting point

Solved entries:
COMPOUND | MEASURED_ENDPOINT | ASSAY_VALUE
COCCOc1nccc(-c2ccc(C(=O)NCCc3ccc4[nH]cc(C(=N)N)c4c3)cc2)n1 (as salt: salt) | melting point | 122 to 124 °C
N=C(N)c1c[nH]c2ccc(CCNC(=O)c3ccc(-c4ccc(=O)[nH]c4)cc3)cc12 | melting point | 152 to 156 °C
CN(CCO)c1nccc(-c2ccc(C(=O)NCCc3ccc4[nH]cc(C(=N)N)c4c3)cc2)n1 (as salt: salt) | melting point | 97 to 100 °C
COc1ccc(-c2ccc(C(=O)NCCc3ccc4[nH]cc(C(=N)N)c4c3)cc2)cc1OC (as salt: salt) | melting point | > 250 °C
CN(C)CCn1cc(-c2ccc(C(=O)NCCc3ccc4[nH]cc(C(=N)N)c4c3)cc2)ccc1=O | melting point | 94 to 97 °C
N=C(N)c1c[nH]c2ccc(CCNC(=O)c3ccc(-c4ccncc4)cc3)cc12 | melting point | 113 to 116 °C

Please find the next compound below.
Note down melting point recorded for N=C(N)c1c[nH]c2ccc(CCNC(=O)c3ccc(-n4cncn4)nc3)cc12
196 to 199 °C

---

Assignment: determine reported melting point for the given compounds.
Structures can show the parent of a compound that is named as a salt.

COMPOUND | melting point
N=C(N)c1c[nH]c2ccc(CCNC(=O)c3ccc(-c4ccnc(NC5CC6CCC5C6)n4)cc3)cc12 (stereo not drawn) (as salt: salt) | 152 to 155 °C
CN(C)CCOc1nccc(-c2ccc(C(=O)NCCc3ccc4[nH]cc(C(=N)N)c4c3)cc2)n1 | 106 to 107 °C

Could I get melting point for every one of these entries?
1. N=C(N)c1c[nH]c2ccc(CCNC(=O)c3ccc(-c4ccnc(CNCCCC(=O)O)n4)cc3)cc12 (as salt: salt)
2. N=C(N)c1c[nH]c2ccc(CCNC(=O)c3ccc(NCCO)nc3)cc12
3. N=C(N)c1c[nH]c2ccc(CCNC(=O)c3ccc(-c4ccnc(N5CCCC5CO)n4)cc3)cc12 (stereo not drawn) (as salt: salt)
4. CN(C)CCCOc1ccc(-c2ccc(C(=O)NCCc3ccc4[nH]cc(C(=N)N)c4c3)cc2)cn1 (as salt: salt)

1: 100 to 104 °C; 2: 102 to 105 °C; 3: 117 to 120 °C; 4: 84 to 86 °C

Could I get melting point for every one of these entries?
1. N=C(N)c1c[nH]c2ccc(CCNC(=O)c3ccc(-c4ccnc(OCCN5CCCC5)n4)cc3)cc12 (as salt: salt)
2. N=C(N)c1c[nH]c2ccc(CCNC(=O)c3ccc(-c4ccnc(NCCCCCCN5CCCCC5)n4)cc3)cc12
3. CN(C)CCCCCCNc1nccc(-c2ccc(C(=O)NCCc3ccc4[nH]cc(C(=N)N)c4c3)cc2)n1 (as salt: salt)
4. N=C(N)c1c[nH]c2ccc(CCNC(=O)c3ccc(-c4ccccn4)s3)cc12
5. CN(CC(N)=O)c1nccc(-c2ccc(C(=O)NCCc3ccc4[nH]cc(C(=N)N)c4c3)cc2)n1 (as salt: salt)
6. N=C(N)c1c[nH]c2ccc(CCNC(=O)c3ccc(-c4ccnc(N5CCCC5C(N)=O)n4)cc3)cc12 (stereo not drawn) (as salt: salt)
7. N=C(N)c1c[nH]c2ccc(CCNC(=O)c3ccc(-c4cccnc4)cc3)cc12

1: 104 to 105 °C; 2: 110 to 113 °C; 3: 89 to 91 °C; 4: 198 to 200 °C; 5: 96 to 98 °C; 6: 139 to 141 °C; 7: 55 to 58 °C

Could I get melting point for every one of these entries?
1. CN(C)CCCOc1cccc(-c2ccc(C(=O)NCCc3ccc4[nH]cc(C(=N)N)c4c3)cc2)c1
2. COc1ccc(-c2ccc(C(=O)NCCc3ccc4c(c3)c(C(=N)N)cn4C)cc2)cn1

84 to 86 °C
237 to 238 °C
